tested on: U2OS; assay: Multiplex assay against U2OS; format: toxicity, cell-based; conditions: human, 24 h, 10 µM, compound concentration 10 uM, replicate 1
Collected Total Cell Count values appear next to each entry.

MOLECULE | TARGET DESC | Total Cell Count
CCN1CCN(Cc2ccc(Nc3ncc(F)c(-c4cc(F)c5nc(C)n(C(C)C)c5c4)n3)nc2)CC1.CS(=O)(=O)O | U2OS | 135
Cc1ccc2nc(NCCN)c3ncc(C)n3c2c1.O=C(O)C(F)(F)F.O=C(O)C(F)(F)F | U2OS | 123
CCn1c(=O)c(-c2ccc(-c3cncs3)cc2Cl)cc2cnc(Nc3ccc(N4CCN(C)CC4)cc3)nc21 | U2OS | 212
O=C(Nc1ccc(Cl)cc1)Nc1cccc(-c2cccc(N3CCCC3)n2)c1 | U2OS | 131
CCCS(=O)(=O)c1nc(NC2CC2)cc(-c2ccc3c(ccn3C3CC(C)(C)NC(C)(C)C3)c2)n1 | U2OS | 151
CCN1CCN(c2ccc(Nc3cc(N(C)C(=O)Nc4c(Cl)c(OC)cc(OC)c4Cl)ncn3)cc2)CC1 | U2OS | 199
CN1CCC(=C2c3ccccc3CC(=O)c3sccc32)CC1.O=C(O)/C=C/C(=O)O [KETOTIFEN FUMARATE] | U2OS | 186
COC(=N)c1nc2ccc3ncnc(Nc4ccc(OC)cc4F)c3c2s1 | U2OS | 264

---

test system: Fibroblast; assay: Multiplex assay against human fibroblast; assay type: toxicity, cell-based; details: 12 h, 10 µM, compound concentration 10 uM, replicate 2
Please note: Population Mitotic Cells (%) exactly at 30% is f. Only values below 30% get t.

RECORD SMILES | ASSIGNED CLASS
O=C1N/C(=N/c2ccccc2F)S/C1=C\c1ccc(C(=O)O)cc1 | f
CNC(=O)c1ccc(Nc2nc(OC3CCCC3)c3c(-c4ccc5nc(C)oc5c4)c[nH]c3n2)c(OC)c1 | f
Cc1cc(C)c(S(=O)(=O)N(Cc2ccc(-c3cccc(S(C)(=O)=O)c3)cc2)Cc2ccc(C(F)(F)F)o2)c(C)c1 | f
CCn1c(=O)c(-c2ccc(-c3cncs3)cc2Cl)cc2cnc(Nc3ccc(N4CCN(C)CC4)cc3)nc21 | f
COc1cc(N2CCN(C)CC2)ccc1Nc1ncc2c(n1)N(C)c1ccccc1C(=O)N2C | f
CCN1CCN(c2ccc(Nc3cc(N(C)C(=O)Nc4c(Cl)c(OC)cc(OC)c4Cl)ncn3)cc2)CC1 | t
O=C1NC(=O)C(c2cnc3ccccn23)=C1c1cn2c3c(cc(F)cc13)CN(C(=O)N1CCCCC1)CC2 | t
O=C(Nc1ccc(Cl)cc1)Nc1cccc(-c2cccc(N3CCCC3)n2)c1 | t

---

tested on: Fibroblast; assay: Multiplex assay against human fibroblast; format: toxicity, cell-based; settings: 48 h, 1 µM, compound concentration 1 uM, replicate 2
MEASURED METRIC: Population Mitochondria Different-Phenotype (%)

RECORD SMILES | TARGET DESC | NUMERIC VALUE
CCCn1c(=O)c2[nH]c(-c3cnn(Cc4cccc(C(F)(F)F)c4)c3)nc2n(CC)c1=O | Fibroblast | 5
Cl.Oc1ccc2c3c1O[C@H]1c4[nH]c5c(c4C[C@@]4(O)[C@@H](C2)N(CC2CC2)CC[C@]314)C[C@@]1(O)[C@H]2Cc3ccc(O)c4c3[C@@]1(CCN2CC1CC1)[C@H]5O4 | Fibroblast | 0
CCn1c(=O)c(-c2ccc(-c3cncs3)cc2Cl)cc2cnc(Nc3ccc(N4CCN(C)CC4)cc3)nc21 | Fibroblast | 6

---

tested on: HEK-293T; assay: Multiplex assay against HEK293T; assay type: toxicity, cell-based; conditions: human, 48 h, 1 µM, compound concentration 1 uM, replicate 1
The threshold is inclusive: Population Fragmented Nuclei (%) of exactly 20% counts as 1 (yes); values below receive 0 (no).

RECORD SMILES | ASSIGNED CLASS
COc1cc(N2CCN(C)CC2)ccc1Nc1ncc2c(n1)N(C)c1ccccc1C(=O)N2C | 0 (no)
C=C1/C(=C\C=C2/CCC[C@]3(C)[C@@H]([C@H](C)/C=C/[C@H](C)C(C)C)CC[C@@H]23)C[C@@H](O)C[C@@H]1O | 0 (no)
O=C1NC(=O)C(c2cnc3ccccn23)=C1c1cn2c3c(cc(F)cc13)CN(C(=O)N1CCCCC1)CC2 | 0 (no)
O=C(Nc1ccc(-c2ccnc(Nc3ccc(N4CCOCC4)cc3)n2)cc1)[C@@H]1CCCN1 | 0 (no)
CCOc1cc2ncc(C#N)c(Nc3ccc(OCc4ccccn4)c(Cl)c3)c2cc1NC(=O)/C=C/CN(C)C | 1 (yes)
Cc1cn(-c2cc(NC(=O)c3ccc(C)c(Nc4nccc(-c5cccnc5)n4)c3)cc(C(F)(F)F)c2)cn1 | 0 (no)
S=C(NCCCc1c[nH]cn1)NCCCN(Cc1ccc(Cl)c(Cl)c1)c1ccc(Br)cn1 | 0 (no)
CNc1cc(Oc2cc(C(=O)Nc3cc(N4CCN(C)CC4)cc(C(F)(F)F)c3)ccc2C)ncn1 | 1 (yes)

---

test system: U2OS; assay: Incucyte cell viability with U2OS; assay type: toxicity, cell-based; settings: human, 24 h, 10 µM, compound concentration 10 uM, replicate number 1, timepoint 24 hours; further: filed as whole numbers so only -1 and 0 and 1 occur

COMPOUND | Growth Rate
CN1C2CCC1CC(OC(c1ccc(F)cc1)c1ccc(F)cc1)C2.Cl (configuration not stated) | 0
CC(=O)c1c(NS(C)(=O)=O)c2cc(-c3ccc(Cl)cc3)c(-c3ccc(Cl)cc3Cl)nc2n(C)c1=O | 1
COC1CCN(c2cccc(-c3cc(NC(C)=O)nc(-n4nc(C)cc4C)n3)n2)CC1 | 0
CCCCCCCCCCCCCCCCOC[C@H](COP(=O)([O-])OCC[N+](C)(C)C)OC(C)=O | 1
Cc1cc([C@@H](C)Nc2cccc(-c3cc(C)c(C(=O)N[C@@H](C)C(=O)O)c(C)c3)c2)ccc1Cl | 1
Cc1ccc(C(=O)Nc2cccc(C(F)(F)F)c2)cc1Nc1nc(-c2cccnc2)nc2c1cnn2C | 0
O=C(Nc1ccc(Cl)cc1)Nc1cccc(-c2cccc(N3CCCC3)n2)c1 | 0
O=C1O[C@]2(CC[C@H](C(=O)Nc3ccn(-c4ccccc4F)n3)CC2)c2cnccc21 | 0
COc1cc(N2CCC(N3CCN(C)CC3)CC2)ccc1Nc1ncnc(Nc2ccccc2S(=O)(=O)C(C)C)n1 | 0
CCn1cc(-c2ccnc3[nH]c(-c4cccc(CN(C)C)c4)cc23)c(-c2ccc(NC(=O)N(C)C)cc2)n1 | 0
CCC(=N\O)/C(C)=C/c1ccc(F)c(C)c1 | 0
CC(=O)N1CCC(c2ccc(C(=O)NC(=N)N)cc2C(F)(F)F)CC1 | 1
CC(C)OC(=O)C1=CN(C(=O)c2ccc(F)c(F)c2)CC(C)(C)c2c1[nH]c1ccccc21 [TUROFEXORATE ISOPROPYL] | 0
O=C(Nc1cccnn1)N1CCC(=Cc2cccc(Oc3ccc(C(F)(F)F)cn3)c2)CC1 | 0
CCCS(=O)(=O)c1nc(NC2CC2)cc(-c2ccc3c(ccn3C3CC(C)(C)NC(C)(C)C3)c2)n1 | 0
Cl.O=C(O)Cc1cccc(OCCCN(Cc2cccc(C(F)(F)F)c2Cl)CC(c2ccccc2)c2ccccc2)c1 | 1
Cc1cnc(Nc2ccc(F)cc2Cl)nc1-c1c[nH]c(C(=O)N[C@H](CO)c2cccc(Cl)c2)c1 | 0
C=CC(=O)Nc1ccc2[nH]c(=O)n(C3CCN(C(=O)c4ccc(-c5nc6cc[nH]c(=O)c6cc5-c5ccccc5)cc4)CC3)c2c1 | 1
CN1CCN(C(=O)C(C)(C)c2ccc(C(=O)Nc3cn4cc(-c5ccncc5)ccc4n3)cc2)CC1 | 0
O=C1N/C(=N/c2ccccc2F)S/C1=C\c1ccc(C(=O)O)cc1 | 1
CC(=O)C1=C(C)N(c2cccc(C(F)(F)F)c2)C(=O)N[C@@H]1c1ccc(C#N)nc1 | 0
Cc1nnn(-c2ccc(-c3ccc(C4(C(=O)O)CC4)cc3)cc2)c1NC(=O)O[C@H](C)c1ccccc1 | 1
Cc1nc(NC(=O)N2CCC[C@H]2C(N)=O)sc1-c1ccnc(C(C)(C)C(F)(F)F)c1 | 0
Cc1ccc(-c2ccc3c(ccc4sc5c(c43)NC[C@@H](C)NC5=O)n2)cn1 | 1
CCCc1c(OCCCOc2ccc(OCC(=O)O)cc2)ccc(C(C)=O)c1O | 0
CNc1cc(Oc2cc(C(=O)Nc3cc(N4CCN(C)CC4)cc(C(F)(F)F)c3)ccc2C)ncn1 | 0
N[C@@H](Cc1cc(I)c(Oc2ccc(O)c(I)c2)c(I)c1)C(=O)O | 1
OCCn1cc(-c2cnc3nnn(Cc4ccc5ncccc5c4)c3n2)cn1 | 1
FC(F)(F)c1cccc(-c2noc(-c3cc(-c4ccccc4)c(C(F)(F)F)s3)n2)c1 | 1
c1ccc(Nc2nc3c(s2)CCCc2[nH]ncc2-3)nc1 | 0
CC(C)(C(=O)O)c1ccc(C(O)CCCN2CCC(C(O)(c3ccccc3)c3ccccc3)CC2)cc1.Cl (configuration not stated) [FEXOFENADINE HYDROCHLORIDE] | 1
C=C1/C(=C\C=C2/CCC[C@]3(C)[C@@H]([C@H](C)/C=C/[C@H](C)C(C)C)CC[C@@H]23)C[C@@H](O)C[C@@H]1O | 0
